IC50 values for the compounds below.
- System: MOLM-13 cells
- assay_procedure: Cell viability assay (CellTiter-Glo) in MOLM-13 cells
- Assay type: cell-based
- measurement_context: MOLM-13 cells, with gilteritinib, three days; read-out: MOLM-13 IC50 (nM) + 10 nM Gil

Recorded results for 3 compounds are shown here.
Cn1ncc2cncc(-c3cn([C@H]4C[C@H](CNc5ccc6c(c5)C(=O)N(C5CCC(=O)NC5=O)C6=O)C4)nc3C3CC3)c21 (stereo partly shown) [GS-781] | 10 to 100 nM
O=C1CCC(N2C(=O)c3ccc(NC[C@H]4C[C@H](n5cc(-c6ccc7c(n6)C(O)CC7)c(C6CC6)n5)C4)cc3C2=O)C(=O)N1 (stereo partly shown) [GS-780] | < 10 nM
Cn1ncc2cnc(-c3cn([C@H]4C[C@H](CCc5ccc6c(c5)CN([C@@H]5CCC(=O)NC5=O)C6=O)C4)nc3C3CC3)cc21 [GS-766] | < 10 nM

// returns IC50 for Cc1cc(F)cnc1-c1cn([C@H]2C[C@H](CNc3ccc4c(c3)CN(C3CCC(=O)NC3=O)C4=O)C2)nc1C(F)F (stereo partly shown) [GS-668] with MOLM-13 cells; value = < 10 nM

// returns IC50 for O=C1CCC(N2C(=O)c3ccc(NCCC4CC5(C4)CC(n4nc(C6CC6)c6ccccc64)C5)cc3C2=O)C(=O)N1 (stereo not shown) [GS-783] with MOLM-13 cells; value = 10 to 100 nM

// returns IC50 for O=C1CCC(N2C(=O)c3ccc(NCCCn4cc(-c5cnc6ccccc6n5)c(C5CC5)n4)cc3C2=O)C(=O)N1 (stereo not shown) [GS-642] with MOLM-13 cells; value = < 10 nM

// returns IC50 for CC(C)n1cc2ccnc(-c3cn([C@H]4C[C@H](CNc5ccc6c(c5)C(=O)N(C5CCC(=O)NC5=O)C6=O)C4)nc3C3CC3)c2n1 (stereo partly shown) [GS-660] with MOLM-13 cells; value = < 10 nM

// returns IC50 for Cc1nc(-c2cn([C@H]3C[C@H](CNc4ccc5c(c4)CN(C4CCC(=O)NC4=O)C5=O)C3)nc2C2CC2)ccc1F (stereo partly shown) [GS-731] with MOLM-13 cells; value = < 10 nM

// returns IC50 for O=C1CCC(N2Cc3cc(NC[C@H]4C[C@H](n5cc(-c6cnc7ccccc7n6)c(C6CC6)n5)C4)ccc3C2=O)C(=O)N1 (stereo partly shown) [GS-651] with MOLM-13 cells; value = < 10 nM

// returns IC50 for O=C1CCC(N2C(=O)c3ccc(NC[C@H]4C[C@H](n5cc(-c6cnc7ccc(C8CC(O)C8)cc7n6)c(C6CC6)n5)C4)cc3C2=O)C(=O)N1 (stereo partly shown) [GS-764] with MOLM-13 cells; value = < 10 nM

// returns IC50 for O=C1CCC(N2C(=O)c3ccc(NC[C@H]4C[C@H](n5cc(-c6cc7c(cn6)cnn7[C@H]6CC[C@@H](O)CC6)c(C6CC6)n5)C4)cc3C2=O)C(=O)N1 (stereo partly shown) [GS-782] with MOLM-13 cells; value = < 10 nM

// returns IC50 for Cn1ncc2cnc(-c3cn([C@H]4C[C@H](CNc5ccc6c(c5)CN(C5CCC(=O)NC5=O)C6=O)C4)nc3C3CC3)cc21 (stereo partly shown) [GS-678] with MOLM-13 cells; value = < 10 nM

// returns IC50 for CN1CC(c2ccc3ncc(-c4cn([C@H]5C[C@H](CNc6ccc7c(c6)C(=O)N(C6CCC(=O)NC6=O)C7=O)C5)nc4C4CC4)nc3c2)C1 (stereo partly shown) [GS-655] with MOLM-13 cells; value = 100 to 1000 nM

// returns IC50 for CN1CC(n2cc3cnc(-c4cn([C@H]5C[C@H](CNc6ccc7c(c6)C(=O)N(C6CCC(=O)NC6=O)C7=O)C5)nc4C4CC4)cc3n2)C1 (stereo partly shown) [GS-680] with MOLM-13 cells; value = < 10 nM

// returns IC50 for Cn1ccc2c(-c3cn([C@H]4C[C@H](CNc5ccc6c(c5)C(=O)N(C5CCC(=O)NC5=O)C6=O)C4)nc3C3CC3)ncc(F)c21 (stereo partly shown) [GS-768] with MOLM-13 cells; value = < 10 nM

// returns IC50 for Cn1ncc2ccc(-c3cn([C@H]4C[C@H](CNc5ccc6c(c5)C(=O)N(C5CCC(=O)NC5=O)C6=O)C4)nc3C3CC3)nc21 (stereo partly shown) [GS-729] with MOLM-13 cells; value = < 10 nM

Each recorded value in this set is attributed to patent US20250221988A1.
